Provenance of the data: the supplement of paper PMC11451515

tested on: P12-Ichikawa; experiment: cell viability relative to DMSO control; higher = less cytotoxic; conditions: RPMI 5 mM glucose + 10% dialyzed FBS; 48 h; 0.000781 µM
MEASUREMENT KIND: cell viability (%)
# value in %; strip the unit string

Below: 5 compounds and their reported cell viability.
CN(C)CCCC1(c2ccc(F)cc2)OCc2cc(C#N)ccc21 (stereo unspecified)    90.6
CCC(CCCC)COC(=O)C(\C#N)=C(\c1ccccc1)c2ccccc2 (stereo unspecified)    87.1
OC(=O)\C1=C\N(C2CC2)C3=CC(=C(F)C=C3C1=O)N4CCNCC4    99.4
NC(=O)c1cccc(-c2cc(Nc3ccc(OC(F)(F)F)cc3)ncn2)c1    99.5
Cc1ccc(C(=O)Nc2cccc(C(F)(F)F)c2)cc1Nc1nc(-c2cccnc2)nc2c1cnn2C    90.8

Would you kindly look at the next entry?
Value of measured cell viability for the entry `O=C(O)c1cc(O)c2c(c1)C(=O)c1cccc(O)c1C2=O` : 118
